Measured tissue uptake at 24 h of individual entries
- RUN_DESCRIPTION: Biodistribution of ^111In-labeled peptides in B16-F1 melanoma-bearing mice
- Assay type: in vivo, mouse (B6D2F1)
- PROTOCOL_CONDITIONS: female, B6D2F1, mouse, spleen, iv, total radioactivity; ^111In-labeled peptide, 185 kBq i.v., 24 h; mean ± SEM of three experiments, n = 5 animals each; read-out: Spleen uptake
Non-standard residues stand in square brackets, D forms with d. Residues, ends and D or L forms follow the SMILES beside them. *: point of attachment. DOTA = O=C(O)CN1CCN(CC(=O)O)CCN(CC(=O)*)CCN(CC(=O)O)CC1; pY = N[C@@H](Cc1ccc(OP(=O)(O)O)cc1)C(=O)O; Nle = CCCC[C@H](N)C(=O)O
Quick reminder: number only, in %ID/g, skip the unit.

Recorded results for 2 compounds are shown here.
COMPOUND	DATA_VALUE
CCCC[C@H](NC(C)=O)C(=O)N[C@@H](CC(=O)O)C(=O)N[C@@H](Cc1c[nH]cn1)C(=O)N[C@H](Cc1ccccc1)C(=O)N[C@@H](CCCNC(=N)N)C(=O)N[C@@H](Cc1c[nH]c2ccccc12)C(=O)NCC(=O)N[C@@H](CCCCNC(=O)CN1CCN(CC(=O)O)CCN(CC(=O)O)CCN(CC(=O)O)CC1)C(=O)N[C@H](CC(=O)O)C(=O)N[C@H](CC(=O)O)C(=O)O [DOTA-NAP-D-Asp-D-Asp] (Ac-[Nle]DH[dF]RWGK(DOTA)[dD][dD]-OH)	0.07
CCCC[C@H](NC(C)=O)C(=O)N[C@@H](CC(=O)O)C(=O)N[C@@H](Cc1c[nH]cn1)C(=O)N[C@H](Cc1ccccc1)C(=O)N[C@@H](CCCNC(=N)N)C(=O)N[C@@H](Cc1c[nH]c2ccccc12)C(=O)NCC(=O)N[C@@H](CCCCNC(=O)CN1CCN(CC(=O)O)CCN(CC(=O)O)CCN(CC(=O)O)CC1)C(N)=O [DOTA-NAP-amide, reference compound]	0.11

Enquiry: Param item = CCCC[C@H](NC(=O)[C@H](Cc1ccc(OP(=O)(O)O)cc1)NC(=O)CNC(=O)CN1CCN(CC(=O)O)CCN(CC(=O)O)CCN(CC(=O)O)CC1)C(=O)N[C@@H](CC(=O)O)C(=O)N[C@@H](Cc1c[nH]cn1)C(=O)N[C@H](Cc1ccccc1)C(=O)N[C@@H](CCCNC(=N)N)C(=O)N[C@@H](Cc1c[nH]c2ccccc12)C(N)=O [DOTA-Phospho-MSH2-9] ({DOTA}-G[pY][Nle]DH[dF]RW-NH2) ; retrieve measured tissue uptake at 24 h.
Return: 0.1

###

- RUN_DESCRIPTION: Biodistribution of ^111In-labeled peptides in B16-F1 melanoma-bearing mice
- Assay type: in vivo, mouse (B6D2F1)
- PROTOCOL_CONDITIONS: female, B6D2F1, mouse, liver, iv, total radioactivity; ^111In-labeled peptide, 185 kBq i.v., 48 h; mean ± SEM of three experiments, n = 5 animals each; read-out: Liver uptake
- Experimental: About 5 × 10^5 B16-F1 cells were implanted subcutaneously to female B6D2F1 mice (C57BL/6 × DBA/2F1 hybrids; breeding pairs obtained from IFFA-CREDO, France). […] The radioactivity emitted by each organ was measured in a γ-counter to determine the tissue uptake as percentage of the injected dose (ID) per gram of tissue. The total of injected radioactivity per animal was determined by extrapolation from the counts of a standard collected from the injection solution for each animal. […]
Non-standard residues stand in square brackets, D forms with d. Residues, ends and D or L forms follow the SMILES beside them. *: point of attachment. DOTA = O=C(O)CN1CCN(CC(=O)O)CCN(CC(=O)*)CCN(CC(=O)O)CC1; pY = N[C@@H](Cc1ccc(OP(=O)(O)O)cc1)C(=O)O; Nle = CCCC[C@H](N)C(=O)O
REPORTED_ENDPOINT: tissue uptake at 48 h (%ID/g)
Unit %ID/g implied. Number only.

Reference set, count: 2
COMPOUND	tissue uptake at 48 h [%ID/g]
CCCC[C@H](NC(C)=O)C(=O)N[C@@H](CC(=O)O)C(=O)N[C@@H](Cc1c[nH]cn1)C(=O)N[C@H](Cc1ccccc1)C(=O)N[C@@H](CCCNC(=N)N)C(=O)N[C@@H](Cc1c[nH]c2ccccc12)C(=O)NCC(=O)N[C@@H](CCCCNC(=O)CN1CCN(CC(=O)O)CCN(CC(=O)O)CCN(CC(=O)O)CC1)C(N)=O [DOTA-NAP-amide, reference compound]	0.27
CCCC[C@H](NC(C)=O)C(=O)N[C@@H](CC(=O)O)C(=O)N[C@@H](Cc1c[nH]cn1)C(=O)N[C@H](Cc1ccccc1)C(=O)N[C@@H](CCCNC(=N)N)C(=O)N[C@@H](Cc1c[nH]c2ccccc12)C(=O)NCC(=O)N[C@@H](CCCCNC(=O)CN1CCN(CC(=O)O)CCN(CC(=O)O)CCN(CC(=O)O)CC1)C(=O)N[C@H](CC(=O)O)C(=O)N[C@H](CC(=O)O)C(=O)O [DOTA-NAP-D-Asp-D-Asp] (Ac-[Nle]DH[dF]RWGK(DOTA)[dD][dD]-OH)	0.07

Enquiry: Entry CCCC[C@H](NC(=O)[C@H](Cc1ccc(OP(=O)(O)O)cc1)NC(=O)CNC(=O)CN1CCN(CC(=O)O)CCN(CC(=O)O)CCN(CC(=O)O)CC1)C(=O)N[C@@H](CC(=O)O)C(=O)N[C@@H](Cc1c[nH]cn1)C(=O)N[C@H](Cc1ccccc1)C(=O)N[C@@H](CCCNC(=N)N)C(=O)N[C@@H](Cc1c[nH]c2ccccc12)C(N)=O [DOTA-Phospho-MSH2-9] ({DOTA}-G[pY][Nle]DH[dF]RW-NH2) : reported tissue uptake at 48 h = ?
Return: 0.12
